# tested.on: C3aR Y393^6.51A (Homo sapiens, UniProt Q16581, Y393A)
# Construct: expressed in transfected cells; host or cells: HEK293T
# Sequence (Q16581 1-482 Y393A): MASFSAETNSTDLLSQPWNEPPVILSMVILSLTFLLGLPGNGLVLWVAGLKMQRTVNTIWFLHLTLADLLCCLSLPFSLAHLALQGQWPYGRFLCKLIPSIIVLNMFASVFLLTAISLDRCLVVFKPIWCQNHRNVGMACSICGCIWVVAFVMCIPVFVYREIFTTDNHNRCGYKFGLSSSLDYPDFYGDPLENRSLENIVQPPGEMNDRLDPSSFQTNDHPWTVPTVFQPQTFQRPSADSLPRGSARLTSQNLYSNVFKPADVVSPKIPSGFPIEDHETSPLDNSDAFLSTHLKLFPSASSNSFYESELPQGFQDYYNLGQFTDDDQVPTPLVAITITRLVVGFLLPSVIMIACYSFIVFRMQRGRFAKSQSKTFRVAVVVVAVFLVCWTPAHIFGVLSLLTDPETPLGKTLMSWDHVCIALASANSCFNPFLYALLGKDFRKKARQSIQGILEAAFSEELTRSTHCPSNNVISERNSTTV
# test.name: GloSensor-based cAMP assay, C3aR mutant Y393A
# Format: cell-based
# test.settings: IC50, Y393^6.51A; dose-response plot
measurement.name: pIC50
Interpret pIC50 as the negative base-10 log of the concentration measured in mol/L.

Which pIC50 is reported for this compound? Cc1cc(C(c2ccc(Cl)cc2)c2ccc(Cl)cc2)sc1C(=O)N[C@@H](CCCNC(=N)N)C(=O)O [JR14a, reference compound]
6.51

###

# tested.on: C3aR V103^3.33A (Homo sapiens, UniProt Q16581, V103A)
# Construct: expressed in transfected cells; host or cells: HEK293T
# Sequence (Q16581 1-482 V103A): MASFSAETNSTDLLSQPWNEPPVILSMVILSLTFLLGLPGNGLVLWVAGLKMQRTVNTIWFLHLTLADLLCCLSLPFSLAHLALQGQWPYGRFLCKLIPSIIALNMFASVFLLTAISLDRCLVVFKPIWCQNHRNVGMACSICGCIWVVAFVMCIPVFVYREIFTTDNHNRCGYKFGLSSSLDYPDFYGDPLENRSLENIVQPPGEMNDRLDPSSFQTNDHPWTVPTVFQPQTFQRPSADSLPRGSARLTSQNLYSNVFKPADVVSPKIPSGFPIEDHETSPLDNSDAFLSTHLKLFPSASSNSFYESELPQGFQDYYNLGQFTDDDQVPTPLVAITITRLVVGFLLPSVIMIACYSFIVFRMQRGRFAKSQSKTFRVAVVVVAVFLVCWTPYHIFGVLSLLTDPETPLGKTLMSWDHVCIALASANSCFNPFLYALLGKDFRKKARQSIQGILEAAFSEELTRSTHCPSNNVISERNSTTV
# test.name: GloSensor-based cAMP assay, C3aR mutant V103A
# Type: cell-based
# test.settings: pIC50 ± SEM (Mean), V103^3.33A; mean of independent experiments
# Procedure: HEK293T cells were seeded on 6-well plates (NEST) and transfected with pGlosensor™-22F plasmids (Promega) and pcDNA3.1 plasmids encoding C3aR or its mutants an with N-terminal FLAG tag. […] After 90 min of incubation, basal luminescence signals were recorded. In total, 25 μl of test ligand with various concentrations and 1 μM Forskolin (Sigma-Aldrich) were treated to the cells and luminescence signals were measured by Tristar 2 LB 942 multimode reader (Berthold). […]
measurement.name: pIC50
Interpret pIC50 as the negative base-10 log of the concentration measured in mol/L.

Which pIC50 is reported for this molecule? Cc1cc(C(c2ccc(Cl)cc2)c2ccc(Cl)cc2)sc1C(=O)N[C@@H](CCCNC(=N)N)C(=O)O [JR14a, reference compound]
8.08

Values from paper PMC12084609
